- system_tested: Platelet-derived growth factor receptor beta (Homo sapiens);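 also: reported value is the mean percent inhibition of the kinase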
- measurement_parameters: at 0.1 µM
The following molecules are listed with their measured inhibition values.
quantity_measured: inhibition (%)

>>> endpoint_result("Clc1ccc(CNc2nccc(-c3cnn4ncccc34)n2)cc1")
3.92
>>> endpoint_result("O=C(Nc1n[nH]c2nc(-c3ccc(O)cc3)c(Br)cc12)C1CC1")
12
>>> endpoint_result("Nc1nccc(-c2c(-c3ccc(F)cc3)ncn2C2CCC(O)CC2)n1 (stereo not given)")
5.21
>>> endpoint_result("NS(=O)(=O)c1ccc(N/N=C2\\C(=O)Nc3ccc(-c4cnco4)cc32)cc1")
12.1
>>> endpoint_result("N#Cc1ccc(Oc2nccc(-c3c(-c4ccc(F)cc4)ncn3C3CCNCC3)n2)cc1")
2.5
>>> endpoint_result("NS(=O)(=O)c1ccc(N/N=C2\\C(=O)Nc3ccc(C(=O)NCCCn4ccnc4)cc32)cc1")
23.1
>>> endpoint_result("COc1cccc(-n2cnc3c(N/N=C/c4ccncc4)ncnc32)c1")
13.2
>>> endpoint_result("C[C@@H](Oc1cc(-n2cnc3ccc(OC4CCN(C)CC4)cc32)sc1C(N)=O)c1ccccc1Cl")
26.3
>>> endpoint_result("c1ccc(Oc2ccc(Nc3ncc(-c4ccccc4)o3)cc2)cc1")
3.82
>>> endpoint_result("CN1CCN(CCCNc2nc3ccc(Oc4ccc(NC(=O)Nc5cc(C(F)(F)F)ccc5F)cc4)cc3[nH]2)CC1")
14.1
>>> endpoint_result("COc1cc(N2CCN(C(C)C)CC2)ccc1Nc1nc(Nc2ccc(F)cc2C(=O)NC[C@@H](O)CO)c2cc[nH]c2n1")
1.36
>>> endpoint_result("CN(C)CCOc1ccc(-c2cc(-c3ccc4c(c3)CCC4=NO)c(-c3ccncc3)o2)cc1")
2.38
>>> endpoint_result("NC(=O)Cc1ccccc1Oc1nccc(-c2c(-c3ccc(F)cc3)ncn2C2CCNCC2)n1")
3.93
>>> endpoint_result("Fc1ccc(-c2c(-c3ccncc3)nc3n2CCS3)cc1")
1.36
>>> endpoint_result("Fc1ccc(-c2ncn(C3CCNCC3)c2-c2ccnc(Oc3ccc4c(c3)OCO4)n2)cc1")
7.36
>>> endpoint_result("CN(c1ccc(NC(=O)Nc2c(Cl)cccc2Cl)cc1)c1ccnc(Nc2cccc(CS(C)(=O)=O)c2)n1")
52.4
>>> endpoint_result("O=C1NC(=O)C(c2cccc(Cl)c2)=C1Nc1ccc(Cl)c(C(=O)O)c1")
1.55
>>> endpoint_result("NC(=O)c1cc(-c2ccncc2)cc(-c2ccccc2)c1N")
9.7
>>> endpoint_result("COc1cc(Nc2ncc3c(C)nc(-c4cccc(Oc5ccccc5)c4)n3n2)cc(OC)c1OC")
0.58
>>> endpoint_result("O=C1Nc2ccc(I)cc2C1=Cc1cc(Br)c(O)c(Br)c1")
0.08

* * *

- system_tested: Dual specificity tyrosine-phosphorylation-regulated kinase 1A (Homo sapiens) (UniProt Q13627)
- measurement_parameters: at 0.1 µM
- Description: GSK_PKIS: DYRK1A mean inhibition at 0.1 uM [Nanosyn]
The following molecules are listed with their measured inhibition values.
quantity_measured: inhibition (%)

>>> endpoint_result("NS(=O)(=O)c1ccc(Nc2cc(-c3ccc(O)c(F)c3)n[nH]2)cc1")
1.28
>>> endpoint_result("Clc1ccc(CNc2nccc(-c3cnn4ncccc34)n2)cc1")
16
>>> endpoint_result("CCc1ccc(Oc2nccc(-c3c(-c4ccc(F)cc4)ncn3C3CCNCC3)n2)cc1")
0.92
>>> endpoint_result("COc1ccc(-c2ccc3c(NC(=O)C4CC4)n[nH]c3n2)cc1")
0.91
>>> endpoint_result("C/C(Nc1ccc(S(N)(=O)=O)cc1)=C1/C(=O)Nc2ccccc21")
3.02
>>> endpoint_result("COc1cc(Nc2ncc3c(C)nc(-c4cccc(Oc5ccccc5)c4)n3n2)cc(OC)c1OC")
0.25
>>> endpoint_result("O=C(Nc1n[nH]c2cc(-c3cc(F)ccc3F)ccc12)C1CC1")
2.37
>>> endpoint_result("COc1cc(Nc2ncc3c(C)nc(-c4cccc(C(F)(F)F)c4)n3n2)cc(OC)c1OC")
4.11
>>> endpoint_result("COc1cccc(/C=N/Nc2ncnc3c2cnn3-c2cccc(OC)c2)c1")
3.1
>>> endpoint_result("CN(C)CCCNc1nccc(-c2c(-c3ccc(F)cc3)nn3cc(C(F)(F)F)ccc23)n1")
-2.63

* * *

- system_tested: Phosphatidylinositol 4,5-bisphosphate 3-kinase catalytic subunit delta isoform (Homo sapiens);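 also: reported values are mean percent inhibition of PI3K-delta activity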
- Sequence (whole entry): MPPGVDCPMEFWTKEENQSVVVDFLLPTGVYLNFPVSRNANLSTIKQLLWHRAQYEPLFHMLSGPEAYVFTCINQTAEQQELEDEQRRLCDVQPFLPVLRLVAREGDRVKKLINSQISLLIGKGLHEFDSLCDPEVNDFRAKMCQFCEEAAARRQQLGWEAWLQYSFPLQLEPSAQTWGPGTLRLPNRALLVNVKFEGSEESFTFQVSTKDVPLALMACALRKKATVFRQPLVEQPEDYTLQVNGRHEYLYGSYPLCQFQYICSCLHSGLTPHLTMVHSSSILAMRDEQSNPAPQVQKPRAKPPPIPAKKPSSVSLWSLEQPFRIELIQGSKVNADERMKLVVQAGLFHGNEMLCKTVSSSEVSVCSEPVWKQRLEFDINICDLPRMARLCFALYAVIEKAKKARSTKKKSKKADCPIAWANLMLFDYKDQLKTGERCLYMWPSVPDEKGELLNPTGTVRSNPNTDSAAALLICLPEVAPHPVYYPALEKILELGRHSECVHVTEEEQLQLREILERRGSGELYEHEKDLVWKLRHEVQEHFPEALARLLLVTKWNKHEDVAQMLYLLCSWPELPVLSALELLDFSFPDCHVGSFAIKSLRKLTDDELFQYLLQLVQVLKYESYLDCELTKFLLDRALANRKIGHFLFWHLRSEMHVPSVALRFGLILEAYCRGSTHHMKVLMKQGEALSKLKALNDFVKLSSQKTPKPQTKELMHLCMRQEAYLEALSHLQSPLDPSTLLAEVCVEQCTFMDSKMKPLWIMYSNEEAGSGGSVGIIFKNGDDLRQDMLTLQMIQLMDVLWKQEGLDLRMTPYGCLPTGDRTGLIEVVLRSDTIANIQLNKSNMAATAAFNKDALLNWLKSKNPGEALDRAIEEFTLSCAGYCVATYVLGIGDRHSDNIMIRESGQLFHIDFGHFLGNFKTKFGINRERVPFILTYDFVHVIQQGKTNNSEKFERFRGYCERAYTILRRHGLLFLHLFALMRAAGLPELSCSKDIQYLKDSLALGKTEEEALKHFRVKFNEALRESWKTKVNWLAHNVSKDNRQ
- measurement_parameters: at 1 µM
quantity_measured: inhibition (%)

>>> endpoint_result("CCc1ccc(Oc2nccc(-c3c(-c4ccc(F)cc4)ncn3C3CCNCC3)n2)cc1")
6.26
>>> endpoint_result("NS(=O)(=O)c1ccc(N/N=C2\\C(=O)Nc3ccc(-c4cnco4)cc32)cc1")
-0.54
>>> endpoint_result("COc1ccc2cc(-c3c(-c4ccncc4)nc(-c4ccc([S+](C)[O-])cc4C)n3C)ccc2c1 (centres undefined)")
-1.78
>>> endpoint_result("CCC(=O)Nc1ccc(C)c(-c2ccc(C(=O)NCC3CC3)cc2)c1")
-0.59
>>> endpoint_result("Fc1ccc(-c2ncn(C3CCNCC3)c2-c2ccnc(Oc3ccc(Oc4ccccc4)cc3)n2)cc1")
2.82
>>> endpoint_result("CN(C)c1ccc2c(c1)/C(=C/Nc1ccc(S(N)(=O)=O)cc1)C(=O)N2")
4.54
>>> endpoint_result("C/C(Nc1ccc(S(N)(=O)=O)cc1)=C1/C(=O)Nc2ccccc21")
3.52
>>> endpoint_result("C[C@@H](Oc1cc(-n2cnc3ccc(OC4CCN(C)CC4)cc32)sc1C(N)=O)c1ccccc1Cl")
62.5
>>> endpoint_result("CS(=O)(=O)CCNCc1cc(-c2cc3c(Nc4ccc(OCc5cccc(F)c5)c(Cl)c4)ncnc3s2)cs1")
7.33
>>> endpoint_result("Fc1ccc(-c2c(-c3ccncc3)nc3n2CCS3)cc1")
3.22
>>> endpoint_result("NC(=O)c1ccc(Oc2nccc(-c3c(-c4ccc(F)cc4)ncn3C3CCNCC3)n2)cc1")
5.87
>>> endpoint_result("Clc1ccc(CNc2nccc(-c3cnn4ncccc34)n2)cc1")
1.79
>>> endpoint_result("COc1cc(N2CCN(C(C)C)CC2)ccc1Nc1nc(Nc2ccc(F)cc2C(=O)NC[C@@H](O)CO)c2cc[nH]c2n1")
3.4
>>> endpoint_result("COc1ccc(-c2ccc3c(NC(=O)C4CC4)n[nH]c3n2)cc1")
-0.82
>>> endpoint_result("COc1ccc2cc(-c3c(-c4ccncc4)nc(-c4ccc(S(C)(=O)=O)cc4C)n3C)ccc2c1")
1.59
>>> endpoint_result("CNC(=O)c1cncc(/C=C/c2c(C)cccc2C)c1")
-1.98
>>> endpoint_result("CN(C)CCCNc1nccc(-c2c(-c3ccc(F)cc3)nn3cc(C(F)(F)F)ccc23)n1")
2
>>> endpoint_result("COc1cccc(/C=N/Nc2ncnc3c2cnn3-c2cccc(OC)c2)c1")
1.58
>>> endpoint_result("CCN(CC)Cc1ccc(Nc2nccc(-c3cnn4ncccc34)n2)cc1")
40.2
